test system: Mus musculus; test: Toxicity in ICR mouse assessed as liver necropsy at > 500 mg/kg, ip after 7 days; assay type: organism-based; set-up: dose 500 mg/kg, route intraperitoneal; conditions: in vivo, 168 h
REPORTED ENDPOINT: Activity

Worked set:
SMILES INPUT | TARGET UNDER TEST | REPORTED ENDPOINT | EXPERIMENTAL VALUE
CC[C@H](C)[C@H](NCCc1nc(C(=O)O)cc2c3ccccc3n(Cc3ccccc3)c12)C(=O)O | Mus musculus | Activity | Non-toxic
C[C@H](NCCc1nc(C(=O)O)cc2c3ccccc3n(Cc3ccccc3)c12)C(=O)O | Mus musculus | Activity | Non-toxic
O=C(O)c1cc2c3ccccc3n(Cc3ccccc3)c2c(CCN[C@@H](Cc2ccc(O)cc2)C(=O)O)n1 | Mus musculus | Activity | Non-toxic
O=C(O)C[C@H](NCCc1nc(C(=O)O)cc2c3ccccc3n(Cc3ccccc3)c12)C(=O)O | Mus musculus | Activity | Non-toxic
N=C(N)NCCC[C@H](NCCc1nc(C(=O)O)cc2c3ccccc3n(Cc3ccccc3)c12)C(=O)O | Mus musculus | Activity | Non-toxic

Ask | Request - read-out Activity | tested on Mus musculus | compound O=C(O)CNCCc1nc(C(=O)O)cc2c3ccccc3n(Cc3ccccc3)c12
Reply | Non-toxic

Ask | Fill in the recorded Activity for this compound, with Mus musculus as test system: C[C@@H](O)[C@H](NCCc1nc(C(=O)O)cc2c3ccccc3n(Cc3ccccc3)c12)C(=O)O
Reply | Non-toxic

Ask | // fetch Mus musculus Activity for O=C(O)c1cc2c3ccccc3n(Cc3ccccc3)c2c(CCN[C@@H](Cc2ccccc2)C(=O)O)n1
Reply | Non-toxic

---

tested on: Mus musculus; assay: Toxicity in mouse S180 cells xenografted in ICR mouse assessed as increase in body weight at 89 umol/kg, ip administered 24 hrs after tumor implantation once daily for 7 consecutive days measured after 24 hrs last post dose; format: organism-based, CCRF S-180; conditions: in vivo
REPORTED ENDPOINT: Activity (g)
Form entry: value (g) — number only.

COMPOUND | TARGET UNDER TEST | REPORTED ENDPOINT | UNIT NAME | EXPERIMENTAL VALUE
O=C(O)c1cc2c3ccccc3n(Cc3ccccc3)c2c(CCN[C@@H](CO)C(=O)O)n1 | Mus musculus | Activity | g | 11.46
O=C(O)c1cc2c3ccccc3n(Cc3ccccc3)c2c(CCN[C@@H](Cc2ccc(O)cc2)C(=O)O)n1 | Mus musculus | Activity | g | 13.62
O=C(O)c1cc2c3ccccc3n(Cc3ccccc3)c2c(CCN[C@@H](Cc2ccccc2)C(=O)O)n1 | Mus musculus | Activity | g | 9.74

Ask | What value of Activity has been reported for the following compound? O=C(O)C[C@H](NCCc1nc(C(=O)O)cc2c3ccccc3n(Cc3ccccc3)c12)C(=O)O
Reply | 10.11

Ask | Form field: reported Activity of O=C(O)c1cc2c3ccccc3n(Cc3ccccc3)c2c(CCN2CCC[C@H]2C(=O)O)n1
Reply | 12.07

---

test system: Mus musculus; assay: Toxicity in ICR mouse assessed as tetanus at > 500 mg/kg, ip after 7 days; assay type: organism-based; set-up: dose 500 mg/kg, route intraperitoneal; details: in vivo, 168 h
REPORTED ENDPOINT: Activity

SMILES INPUT | EXPERIMENTAL VALUE
O=C(O)c1cc2c3ccccc3n(Cc3ccccc3)c2c(CCN[C@@H](Cc2ccccc2)C(=O)O)n1 | Non-toxic
O=C(O)c1cc2c3ccccc3n(Cc3ccccc3)c2c(CCN[C@@H](Cc2ccc(O)cc2)C(=O)O)n1 | Non-toxic
CC[C@H](C)[C@H](NCCc1nc(C(=O)O)cc2c3ccccc3n(Cc3ccccc3)c12)C(=O)O | Non-toxic

---

test system: Mus musculus; test: Toxicity in ICR mouse assessed as jumping at > 500 mg/kg, ip after 7 days; format: organism-based; set-up: dose 500 mg/kg, route intraperitoneal; conditions: in vivo, 168 h
REPORTED ENDPOINT: Activity

SMILES INPUT | REPORTED ENDPOINT | EXPERIMENTAL VALUE
N=C(N)NCCC[C@H](NCCc1nc(C(=O)O)cc2c3ccccc3n(Cc3ccccc3)c12)C(=O)O | Activity | Non-toxic
O=C(O)c1cc2c3ccccc3n(Cc3ccccc3)c2c(CCN[C@@H](Cc2ccccc2)C(=O)O)n1 | Activity | Non-toxic
O=C(O)C[C@H](NCCc1nc(C(=O)O)cc2c3ccccc3n(Cc3ccccc3)c12)C(=O)O | Activity | Non-toxic
C[C@@H](O)[C@H](NCCc1nc(C(=O)O)cc2c3ccccc3n(Cc3ccccc3)c12)C(=O)O | Activity | Non-toxic

---

assay: Cytotoxicity against human H1299 cells after 48 hrs by MTT assay; type: functional, cell-based; settings: NCI-H1299, 48 h
Lab note: compare IC50 with 80 µM, writing 1 if less and 0 if equal or more.

COMPOUND | CATEGORY LABEL
CC[C@H](C)[C@H](NCCc1nc(C(=O)O)cc2c3ccccc3n(Cc3ccccc3)c12)C(=O)O | 1

Ask | is_below(IC50, 80 µM) for O=C(O)c1cc2c3ccccc3n(Cc3ccccc3)c2c(CCN2CCC[C@H]2C(=O)O)n1 ?
Reply | 1

Ask | Here's an entry: O=C(O)C[C@H](NCCc1nc(C(=O)O)cc2c3ccccc3n(Cc3ccccc3)c12)C(=O)O . Is its IC50 below 80 µM?
Reply | 1

Ask | Does O=C(O)c1cc2c3ccccc3n(Cc3ccccc3)c2c(CCN[C@@H](CO)C(=O)O)n1 have IC50 strictly under 80 µM?
Reply | 0

Ask | Lab note: confirm whether the reported IC50 for this compound is below 80 µM, equality not counting. compound: O=C(O)c1cc2c3ccccc3n(Cc3ccccc3)c2c(CCN[C@@H](Cc2ccc(O)cc2)C(=O)O)n1
Reply | 1

---

List of IC50 values.
experiment: Cytotoxicity against human H1299 cells after 48 hrs by MTT assay; format: functional, cell-based; details: NCI-H1299, 48 h
Note: unit µM is implicit; provide only the numeric part.

Study these solved cases before continuing.
SMILES INPUT | REPORTED ENDPOINT | UNIT NAME | EXPERIMENTAL VALUE
CSCC[C@H](NCCc1nc(C(=O)O)cc2c3ccccc3n(Cc3ccccc3)c12)C(=O)O | IC50 | µM | 100
O=C(O)c1cc2c3ccccc3n(Cc3ccccc3)c2c(CCN[C@@H](Cc2c[nH]c3ccccc23)C(=O)O)n1 | IC50 | µM | 57.3

Ask | Which IC50 is reported for this compound? O=C(O)c1cc2c3ccccc3n(Cc3ccccc3)c2c(CCN[C@@H](Cc2c[nH]cn2)C(=O)O)n1
Reply | 20

Ask | # input compound: N=C(N)NCCC[C@H](NCCc1nc(C(=O)O)cc2c3ccccc3n(Cc3ccccc3)c12)C(=O)O ; wanted: its IC50
Reply | 86.4

Ask | Which IC50 value is on record for O=C(O)c1cc2c3ccccc3n(Cc3ccccc3)c2c(CCN[C@@H](Cc2ccccc2)C(=O)O)n1 ?
Reply | 59.3

Ask | Query (compound): O=C(O)CNCCc1nc(C(=O)O)cc2c3ccccc3n(Cc3ccccc3)c12 ; field requested: IC50
Reply | 75.6

Ask | Dear colleague, I am looking for the recorded IC50 of the following compound: C[C@H](NCCc1nc(C(=O)O)cc2c3ccccc3n(Cc3ccccc3)c12)C(=O)O
Reply | 81.8

---

system: HL-60; experiment: Cytotoxicity against human HL60 cells after 48 hrs by MTT assay; type: functional, cell-based; conditions: HL-60, 48 h
REPORTED ENDPOINT: pIC50
Friendly reminder that pIC50 comes from taking -log10 of the concentration in mol/L.

Worked set:
MOLECULE | TARGET UNDER TEST | REPORTED ENDPOINT | EXPERIMENTAL VALUE
O=C(O)C[C@H](NCCc1nc(C(=O)O)cc2c3ccccc3n(Cc3ccccc3)c12)C(=O)O | HL-60 | pIC50 | 4.36
CC[C@H](C)[C@H](NCCc1nc(C(=O)O)cc2c3ccccc3n(Cc3ccccc3)c12)C(=O)O | HL-60 | pIC50 | 4.48
C[C@H](NCCc1nc(C(=O)O)cc2c3ccccc3n(Cc3ccccc3)c12)C(=O)O | HL-60 | pIC50 | 4.55
O=C(O)c1cc2c3ccccc3n(Cc3ccccc3)c2c(CCN[C@@H](Cc2c[nH]cn2)C(=O)O)n1 | HL-60 | pIC50 | 3.80
O=C(O)c1cc2c3ccccc3n(Cc3ccccc3)c2c(CCN[C@@H](CO)C(=O)O)n1 | HL-60 | pIC50 | 4.63
CC(C)C[C@H](NCCc1nc(C(=O)O)cc2c3ccccc3n(Cc3ccccc3)c12)C(=O)O | HL-60 | pIC50 | 4.34
O=C(O)c1cc2c3ccccc3n(Cc3ccccc3)c2c(CCN2CCC[C@H]2C(=O)O)n1 | HL-60 | pIC50 | 4.55
C[C@@H](O)[C@H](NCCc1nc(C(=O)O)cc2c3ccccc3n(Cc3ccccc3)c12)C(=O)O | HL-60 | pIC50 | 4.30

Ask | I am curious: what pIC50 value has been reported for O=C(O)c1cc2c3ccccc3n(Cc3ccccc3)c2c(CCN[C@@H](Cc2c[nH]c3ccccc23)C(=O)O)n1 ?
Reply | 3.99

Ask | Which pIC50 reading was recorded for the molecule O=C(O)c1cc2c3ccccc3n(Cc3ccccc3)c2c(CCN[C@@H](Cc2ccc(O)cc2)C(=O)O)n1 ?
Reply | 4.62

Ask | What pIC50 value was documented for this molecule, O=C(O)c1cc2c3ccccc3n(Cc3ccccc3)c2c(CCN2C(=O)CCC2C(=O)O)n1 (stereo unspecified) ?
Reply | 3.95
